Measured pIC50 values are reported for all entries that follow.
assayed-target: protein-farnesyl transferase (PFT) (Rattus norvegicus, UniProt Q02293+Q04631)
Construct: soluble fraction of rat's brain
protocol-summary: Inhibitory activities against protein-farnesyl transferase (PFT)
experimental-conditions: PFT from rat brain; prenyl acceptor H-ras protein or biotin-added Lys-Thr-Ser-Cys-Val-Ile-Met; 37° C., 20 minutes; read-out: 50% inhibitory concentrations against PFT activities, IC50
pIC50: −log10 of the molar value.

>  <molecule>
CC(C(CCc1ccccc1)c1ccc(Oc2ccccc2)c(O)c1)N(CC(=O)O)C(=O)[C@@H]1COC(C(=O)O)(C(=O)O)O1 (single isomer, unassigned)

>  <pIC50>
9.70

$$$$
>  <molecule>
C[C@H]([C@H](CCc1ccccc1)c1ccc(Oc2ccccc2)cc1)N(CC(=O)O)C(=O)[C@@H]1OC(C(=O)O)(C(=O)O)O[C@H]1C(=O)O

>  <pIC50>
10.01

$$$$
>  <molecule>
COc1cc(C(CCc2ccccc2)C(C)N(CC(=O)O)C(=O)[C@@H]2COC(C(=O)O)(C(=O)O)O2)ccc1Oc1ccccc1 (single isomer, unassigned)

>  <pIC50>
9.66

$$$$
>  <molecule>
C[C@H]([C@H](CCc1ccccc1)c1ccc(Oc2ccccc2)cc1)N(CC(=O)O)C(=O)[C@H]1OC(C(=O)O)(C(=O)O)O[C@H]1C(=O)O (relative stereo) [Example 23 (4S*, 5R*)-isomer]

>  <pIC50>
10.12

$$$$
>  <molecule>
C[C@H]([C@H](CCc1ccccc1)c1ccc(Oc2ccccc2)cc1)N(CC(=O)O)C(=O)[C@H]1OC(C(=O)O)(C(=O)O)O[C@@H]1C(=O)O

>  <pIC50>
10.02

$$$$
>  <molecule>
C[C@H]([C@H](CCc1ccccc1)c1ccc(Oc2ccccc2)cc1)N(CC(=O)O)C(=O)[C@@H]1COC(C(=O)O)(C(=O)O)O1

>  <pIC50>
9.80

$$$$
>  <molecule>
C[C@H]([C@H](CCc1ccccc1)c1ccc(Oc2ccccc2)cc1)N(CC(=O)O)C(=O)[C@@H]1OC(C(=O)O)(C(=O)O)O[C@@H]1C(=O)O (relative stereo) [Example 23 (4R*, 5S*)-isomer]

>  <pIC50>
10.07

$$$$

* * *

Measured IC50 values are reported for all entries that follow.
Test system: farnesyl-modification of Ras protein in NIH3T3 cells transformed by activated ras gene
protocol-summary: Inhibitory activities against farnesyl-modification of Ras protein in NIH3T3 cells transformed by activated ras gene
Format: cell-based
experimental-conditions: Mus musculus, 24 hours, read-out: 50% inhibitory concentrations against farnesyl-modification of Ras protein, IC50

>  <compound>
C[C@H]([C@H](CCc1ccccc1)c1ccc(Oc2ccccc2)cc1)N(CC(=O)O)C(=O)[C@H]1OC(C(=O)O)(C(=O)O)O[C@@H]1C(=O)O [Example 22]

>  <value-units>
µM

>  <IC50>
1.9

$$$$
>  <compound>
C[C@H]([C@H](CCc1ccccc1)c1ccc(Oc2ccccc2)cc1)N(CC(=O)O)C(=O)[C@H]1OC(C(=O)O)(C(=O)O)O[C@H]1C(=O)O (relative stereo) [Example 23 (4S*, 5R*)-isomer]

>  <value-units>
µM

>  <IC50>
2

$$$$
>  <compound>
CC(C(CCc1ccccc1)c1ccc(Oc2ccccc2)c(O)c1)N(CC(=O)O)C(=O)[C@@H]1COC(C(=O)O)(C(=O)O)O1 (single isomer, unassigned) [Example 32]

>  <value-units>
µM

>  <IC50>
0.59

$$$$
>  <compound>
C[C@H]([C@H](CCc1ccccc1)c1ccc(Oc2ccccc2)cc1)N(CC(=O)O)C(=O)[C@@H]1COC(C(=O)O)(C(=O)O)O1 [Example 9]

>  <value-units>
µM

>  <IC50>
0.24

$$$$
>  <compound>
COc1cc(C(CCc2ccccc2)C(C)N(CC(=O)O)C(=O)[C@@H]2COC(C(=O)O)(C(=O)O)O2)ccc1Oc1ccccc1 (single isomer, unassigned) [Example 31]

>  <value-units>
µM

>  <IC50>
0.55

$$$$
>  <compound>
C[C@H]([C@H](CCc1ccccc1)c1ccc(Oc2ccccc2)cc1)N(CC(=O)O)C(=O)[C@@H]1OC(C(=O)O)(C(=O)O)O[C@@H]1C(=O)O (relative stereo) [Example 23 (4R*, 5S*)-isomer]

>  <value-units>
µM

>  <IC50>
2.1

$$$$
>  <compound>
C[C@H]([C@H](CCc1ccccc1)c1ccc(Oc2ccccc2)cc1)N(CC(=O)O)C(=O)[C@@H]1OC(C(=O)O)(C(=O)O)O[C@H]1C(=O)O [Example 21]

>  <value-units>
µM

>  <IC50>
2.1

$$$$
